From: patent US7629368B2

Kindly supply the reported inhibition at 100 µM values for the records listed here.
# System: PC3 human epithelial cells of prostate cancer
# Procedure summary: Antiproliferative activity, MTT, prostate cancer line PC3
# Format: cell-based
# Reported conditions: Epithelial cell, 96 h, 10^-4 M, 4 days, vs DMSO 1%, read-out: Inhibition of the proliferative activity (%)
Numbers only, in %.

COc1cc(/C=C/C(=O)OCCCCO[N+](=O)[O-])ccc1OC(=O)C(C)c1ccc(CC(C)C)cc1 (stereo not shown)
47
COc1cc(/C=C/C(=O)OCCCCO[N+](=O)[O-])ccc1OC(=O)C(C)c1ccc(-c2ccccc2)c(F)c1 (stereo not shown)
53
COc1cc(/C=C/C(=O)OCCCCO[N+](=O)[O-])ccc1OC(=O)c1ccccc1OC(C)=O
69

Query inhibition at 100 µM on PC3 human epithelial cells of prostate cancer for CC1=C(CC(=O)OCCCCO[N+](=O)[O-])c2cc(F)ccc2/C1=C\c1ccc([S+](C)[O-])cc1 (stereo not shown) 74

----------
Kindly supply the reported inhibition at 100 µM values for the records listed here.
# Tested on: T24 human epithelial cells of bladder cancer
# Procedure summary: Antiproliferative activity, MTT, bladder cancer line T24
# Format: cell-based
# Reported conditions: Epithelial cell, 96 h, 10^-4 M, 4 days, vs DMSO 1%, read-out: Inhibition of the proliferative activity (%)
Numbers only, in %.

COc1cc(/C=C/C(=O)OCCCCO[N+](=O)[O-])ccc1OC(=O)C(C)c1ccc(CC(C)C)cc1 (stereo not shown)
22
COc1cc(/C=C/C(=O)OCCCCO[N+](=O)[O-])ccc1OC(=O)c1ccccc1OC(C)=O
55
COc1cc(/C=C/C(=O)OCCCCO[N+](=O)[O-])ccc1OC(=O)C(C)c1ccc(-c2ccccc2)c(F)c1 (stereo not shown)
23

# evaluate next
Report inhibition at 100 µM for CC1=C(CC(=O)OCCCCO[N+](=O)[O-])c2cc(F)ccc2/C1=C\c1ccc([S+](C)[O-])cc1 (stereo not shown) please. 93

----------
Can you tell me timidine incorporation, Without Cisplatinum for the items I'm about to list?
# System: Human adenocarcinoma HT29 cells
# Procedure summary: 3H-timidine incorporation in human adenocarcinoma HT29 cells
# Type: cell-based
# Reported conditions: compound 200 μM, 15 hours, cells treated only with Cisplatinum = 100

As a guide, the following entries are already answered.
O=C(O)c1ccccc1O [Salicylic acid, Salicylic Acid, reference compound]
438%
O=C(Oc1cccc(CO[N+](=O)[O-])c1)c1ccccc1O
246%
CC(=O)Oc1ccccc1C(=O)Oc1cccc(CO[N+](=O)[O-])c1
192%

The record that follows has no timidine incorporation, Without Cisplatinum shown yet.
For the molecule CC(=O)Oc1ccccc1C(=O)O [Aspirin, Acetylsalicylic Acid, reference compound] , what timidine incorporation, Without Cisplatinum is on record? 438%

----------
# Test system: 647V human epithelial cells of bladder cancer
# Procedure summary: Antiproliferative activity, MTT, bladder cancer line 647V
# Format: cell-based
# Reported conditions: 96 h, 10^-4 M, 4 days, vs DMSO 1%, read-out: Inhibition of the proliferative activity (%)
Provide the reported inhibition at 100 µM of each item.
Numbers only, in %.

Previously resolved entries follow.
COc1cc(/C=C/C(=O)OCCCCO[N+](=O)[O-])ccc1OC(=O)C(C)c1ccc(-c2ccccc2)c(F)c1 (stereo not shown)
41
CC1=C(CC(=O)OCCCCO[N+](=O)[O-])c2cc(F)ccc2/C1=C\c1ccc([S+](C)[O-])cc1 (stereo not shown)
92
COc1cc(/C=C/C(=O)OCCCCO[N+](=O)[O-])ccc1OC(=O)C(C)c1ccc(CC(C)C)cc1 (stereo not shown)
45

Bench note: what inhibition at 100 µM did COc1cc(/C=C/C(=O)OCCCCO[N+](=O)[O-])ccc1OC(=O)c1ccccc1OC(C)=O show? 50
